- ASSAY SYSTEM: Carboxy-terminal domain RNA polymerase II polypeptide A small phosphatase 1 (Homo sapiens) (UniProt Q9GZU7)
- Sequence (Q9GZU7 76-261 limits assumed): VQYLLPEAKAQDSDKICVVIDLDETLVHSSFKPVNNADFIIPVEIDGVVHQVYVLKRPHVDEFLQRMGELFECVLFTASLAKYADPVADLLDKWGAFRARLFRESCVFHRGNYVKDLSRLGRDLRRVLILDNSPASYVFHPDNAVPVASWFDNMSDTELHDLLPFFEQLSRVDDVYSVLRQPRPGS
- METHOD NOTES: Scp-1 phosphatase inhibitors, primary screen, biochemical, colorimetric, uHTS (AID 493091);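 also: plate controls were DMSO wells with enzyme for no effect and wells lacking enzyme for full effect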
- STUDY CONDITIONS: Recombinant Scp1, phosphopeptide, malachite green phosphate absorbance; at 20 µM; hits give high values
Screen size: about 340,000 compounds; about 3,000 (0.88%) were called active. The sample as a whole holds a higher share of actives than the screen did.
OBSERVABLE: inhibition (%)

1. CSCCC(NC(=O)c1ccco1)C(=O)OCC(=O)Nc1ncc(Cl)c(C)c1Cl (stereo not given): 2.12
2. O=C(CCNC(=O)c1ccccc1Cl)NCc1ccco1: 18.8
3. COc1ccc(C2C3=C(OC(C)=O)c4ccccc4C3=Nc3c2c(=O)n(C)c(=O)n3C)cc1 (stereo not given): -10.3
4. C[C@@H]1CN([C@H](C)CO)C(=O)c2cc(NC(=O)NC3CCCCC3)ccc2O[C@H]1CN(C)S(C)(=O)=O: -8.19
5. O=C(c1cc2c(s1)CCC2)N1CCN(c2ccccc2)CC1: 51.2
6. O=S1(=O)CC/C(=N\Nc2ccc(F)cc2)c2ccsc21: -1.87
7. COc1ccc(S(=O)(=O)N(C)C[C@@H]2Oc3ccc(NC(=O)Nc4c(C)noc4C)cc3C(=O)N([C@H](C)CO)C[C@@H]2C)cc1: 21.7
8. Cc1cccc(-[n+]2c(-c3cccc(Br)c3)[nH]c3nc4ccccc4nc32)c1: -8.9
9. Cc1c(Cl)cnc(NC(=O)COC(=O)c2ccc(S(=O)(=O)NCc3ccco3)cc2)c1Cl: 61.6
10. O=C(COC(=O)c1ccco1)NCc1ccc(Cl)cc1: -4.57
11. Cc1cc(C(=O)OCC(=O)NCc2ccco2)c(C)n1-c1ccccc1: 73.1
12. Cc1ccc(CNC(=O)C(=O)c2cn(CC(=O)N3CCCC3)c3ccccc23)cc1: -10.2
13. O=C(COC(=O)c1cnc(Cl)c(Cl)c1)NCc1ccco1: 53.3
14. O=C(CCn1ccc([N+](=O)[O-])n1)Nc1nccs1: -5.19
15. Cc1noc(C)c1S(=O)(=O)N(C)C[C@H]1Oc2ccc(NC(=O)C3CCCCC3)cc2C(=O)N([C@H](C)CO)C[C@@H]1C: -2.33
16. C[C@H](CO)N1C[C@H](C)[C@@H](CN(C)S(=O)(=O)c2ccc(F)cc2)Oc2ccc(NC(=O)CCC(F)(F)F)cc2C1=O: -5.81
17. C[C@@H]1CN([C@@H](C)CO)C(=O)c2cc(NC(=O)C3CC3)ccc2O[C@H]1CN(C)C: -8.19
18. CCOCCCNC(=S)Nc1ccc2nc(N3CCN(CC)CC3)cc(C)c2c1: -1.55
19. Cc1noc(C)c1NC(=O)Nc1ccc2c(c1)C(=O)N([C@H](C)CO)C[C@H](C)[C@@H](CN(C)C(=O)Nc1ccc(C(F)(F)F)cc1)O2: 50.3
20. COc1ccc(NC(=O)CN(C)C(=O)/C=C/c2cn(Cc3ccccc3)nc2-c2cccnc2)cc1: 97.8
21. CC1(C)CC(=O)C2=C(C1)NCN(CCCN1CCOCC1)C2: -1.79
22. COCCCNc1nc2ccccc2nc1NS(=O)(=O)c1ccc(F)cc1: 54.7
23. CC(C)(C)c1cc(P(=O)(c2ccccc2)c2ccccc2)ccc1O: 4.5
24. Cc1ccc(OC(=O)c2ccccc2C(=O)OCC(F)(F)C(F)F)cc1: -9.39
25. CN(c1ccccc1)S(=O)(=O)c1ccc(Cl)c(C(=O)OCC(=O)NCc2ccco2)c1: 81.1
